# System: spike-FP12 peptide
# Type: binding, SARS-CoV-2
Hi! Could you tag entries with % Count below 0.06% as true, and those at or above as false? Much appreciated.

# entry.sequence, assigned.label
data = [
    ("GPDRNFRLSEHRQALA", "false"),
    ("HPNIKRVTPQRKVFRS", "true"),
    ("TLPFGDVEYVDLDAFL", "false"),
    ("QLEHVKLFMQDLSAML", "false"),
    ("SFQYADIYEQMMLTGL", "true"),
    ("DTLLPTQQAEVLHPVV", "false"),
    ("NFRLSEHRQALAAAKH", "true"),
]
